target: HPV33 E6 phospho-PBM peptide p33E6 (human papillomavirus type 33); test: FP
Consider the following binders; for each one, report its Kd.

>  <BINDER>
full-length human 14-3-3η fused to the C terminus of MBP (natural protein) MGDREQLLQRARLAEQAERYDDMASAMKAVTELNEPLSNEDRNLLSVAYKNVVGARRSSWRVISSIEQKTMADGNEKKLEKVKAYREKIEKELETVCNDVLSLLDKFLIKNCNDFQYESKVFYLKMKGDYYRYLAEVASGEKKNSVVEASEAAYKEAFEISKEQMQPTHPIRLGLALNFSVFYYEIQNAPEQACLLAKQAFDDAIAELDTLNEDSYKDSTLIMQLLRDNLTLWTSDQQDEEAGEGN

>  <PARAMETER MEASURED>
Kd

>  <RESULT>
1.98 µM

$$$$
>  <BINDER>
unfused 14-3-3β devoid of the flexible C-terminal tail (domain or fragment) MTMDKSELVQKAKLAEQAERYDDMAAAMKAVTEQGHELSNEERNLLSVAYKNVVGARRSSWRVISSIEQKTERNEKKQQMGKEYREKIEAELQDICNDVLELLDKYLIPNATQPESKVFYLKMKGDYFRYLSEVASGDNKQTTVSNSQQAYQEAFEISKKEMQPTHPIRLGLALNFSVFYYEILNSPEKACSLAKTAFDEAIAELDTLNEESYKDSTLIMQLLRDNLTLWT

>  <PARAMETER MEASURED>
Kd

>  <RESULT>
6.92 µM

$$$$

// fetch Kd given entry unfused 14-3-3τ devoid of the flexible C-terminal tail (domain or fragment) MEKTELIQKAKLAEQAERYDDMATCMKAVTEQGAELSNEERNLLSVAYKNVVGGRRSAWRVISSIEQKTDTSDKKLQLIKDYREKVESELRSICTTVLELLDKYLIANATNPESKVFYLKMKGDYFRYLAEVACGDDRKQTIDNSQGAYQEAFDISKKEMQPTHPIRLGLALNFSVFYYEILNNPELACTLAKTAFDEAIAELDTLNEDSYKDSTLIMQLLRDNLTLWT
5.15 µM
